All figures here come from ChEMBL document CHEMBL4813910.

Experiment: Drug excretion in human urine at 0.7 mg/kg, po measured after 8 to 24 hrs
Type: ADME, organism-based
Conditions: time 8-24 hrs, read-out: Drug excretion
readout: dose excreted (%)
Write the value in % as a bare number.

# compound O=C/C=C/c1ccccc1 ; its dose excreted = 100

----------
Assay: Tmax in human erythrocytes at 2.8 g, po by liquid chromatography-tandem mass spectrometry method
Assay type: ADME, organism-based, Erythrocyte
readout: Tmax (h)
# number only, unit h dropped from output

// sample CC(C)n1nccc1-c1ncccc1COc1cccc(O)c1C=O [VOXELOTOR] , its Tmax was 17.1

----------
Experiment: Half life in human plasma at 5 ug/ml incubated for 1 to 24 hrs by LC/MS/MS method
Type: ADME, cell-free
Conditions: time 1-24 hrs, dose 5 µg/ml
readout: half-life at 5 ug/ml

Reported half-life at 5 ug/ml of Cc1cc2c(C(C)C)c(O)c(O)cc2c(O)c1-c1c(C)cc2c(C(C)C)c(O)c(O)cc2c1O : < 1 h

Per the records, this molecule ( Cc1cc2c(C(C)C)c(O)c(O)c(C=O)c2c(O)c1-c1c(C)cc2c(C(C)C)c(O)c(O)c(C=O)c2c1O ) has half-life at 5 ug/ml equal to < 1 h
